src = the METLIN SMRT retention time set (Domingo-Almenara et al. 2019)

- EXPERIMENT_DESCRIPTION: gradient 5% acetonitrile 3 min, to 50% in 2 min, to 85% in 15 min, held 3 min, 100 µL/min
- MEASUREMENT_SETUP: column: Zorbax Extend-C18 2.1 x 50 mm; eluents: water / acetonitrile, 0.1% formic acid
Listed compounds paired with reported RP-LC retention time
// return numeric value only (unit: s, not printed)

// solved cases for RP-LC retention time follow
Cc1cc(N(C)C)n2ncc(-c3ccc(Cl)cc3)c2n1 = 889
CCOc1ccc(N2C(=O)CN(CCc3ccccc3F)[C@H]3CS(=O)(=O)C[C@H]32)cc1 = 840
CCc1nc2nccc(-c3ccc(OC)cc3F)n2n1 = 778
COCCNC(=O)NC1CCN(c2nc3cccnc3n(Cc3ccc(C)cc3)c2=O)CC1 = 882
Cc1nn2c(nnc3c(=O)n(CCc4c[nH]c5ccccc45)ccc32)c1-c1ccc(F)cc1 = 954

Request: I have this compound here, CCC(=O)N1CCc2cc(N3CC(C(=O)Nc4ccccc4F)CC3=O)ccc21 (stereo not given) , and I need its recorded RP-LC retention time.
Result: 741

Request: Which RP-LC retention time is listed for `Cc1ccc(-n2nc(C)c(S(=O)(=O)N3CCC(C(=O)NC4CC4)CC3)c2C)cc1` ?
Result: 789

Request: Please report the recorded RP-LC retention time for CCc1ccc(CNC(=O)C2CCN(C(=O)c3ncn4c3COC(c3ccccc3)C4)CC2)cc1 (stereo not given) .
Result: 756

---

List of RP-LC retention time values.
- EXPERIMENT_DESCRIPTION: gradient 5% acetonitrile 3 min, to 50% in 2 min, to 85% in 15 min, held 3 min, 100 µL/min
- MEASUREMENT_SETUP: column: Zorbax Extend-C18 2.1 x 50 mm; eluents: water / acetonitrile, 0.1% formic acid
Respond with the bare value in s.

Cc1cc(N2CCN(C(=O)c3cncc(Br)c3)CC2)nc2ccccc12 = 623
CCc1nc2cc3c(cc2n1CC(=O)Nc1ccc(OC)cc1)OCCO3 = 640
CCNc1cc(N2CCCC(CCC(=O)NCCC(C)C)C2)ncn1 (centres undefined) = 662

Request: Item under review: `Cc1ccc(-n2cc(C3=CCN(CC(=O)N4CCN(c5ccccn5)CC4)CC3)cn2)cc1C` . Reported RP-LC retention time?
Result: 596

---

- EXPERIMENT_DESCRIPTION: gradient 5% acetonitrile 3 min, to 50% in 2 min, to 85% in 15 min, held 3 min, 100 µL/min
- MEASUREMENT_SETUP: column: Zorbax Extend-C18 2.1 x 50 mm; eluents: water / acetonitrile, 0.1% formic acid
Consider the cut-off 900 s. If the recorded RP-LC retention time is strictly smaller, the label is Y; if not, the label is N.

A selection of reference data follows.
CC(C)Cc1ccc(S(=O)(=O)N2CCC3(CCC(CN4CCN(C)CC4)O3)CC2)cc1 (centres undefined) = Y
Cc1ncn(CC(=O)Nc2cccc(Cl)c2)c(=O)c1C = Y
CCC(C)C(NC(=O)c1ccc(F)c(F)c1)C(=O)Nc1nc2ccccc2[nH]1 (centres undefined) = Y
O=C(NC1CC1)c1c2c(nc3ccc(F)cc13)CCCC2 = Y
O=C(C1CCN(S(=O)(=O)c2ccc(-c3noc(COc4ccccc4)n3)cc2)CC1)N1CCCC1 = N

Request: RP-LC retention time strictly < 900 s for this compound? `Cc1cc(CN2CCC(CNC(=O)C(=O)Nc3cccnc3)CC2)c(C)o1`
Result: Y

Request: Problem: For the compound `Cc1ccc(NC(=O)Nc2ccc3nnc(C)n3c2)c(C)c1` , is RP-LC retention time under 900 s?
Result: Y

Request: Confirm or reject: RP-LC retention time of `CC(C)C(=O)Nc1ccc(-n2cnc(C(=O)N3CCN(C4CCCCC4)CC3)c2)nc1` lies strictly below 900 s
Result: Y

Request: RP-LC retention time under 900 s? Item: `Cc1cc(N2CCCC2)nc(N2CCN(C(=O)CCC3CCCCC3)CC2)n1`
Result: Y

Request: Hi there! Is RP-LC retention time for `CCCC(=O)NCCc1c2n(c3ccc(OC)cc13)CCCc1ccccc1-2` below 900 s, do you know?
Result: N

Request: Find out if reported RP-LC retention time for COc1ccc(-c2noc(C3CC(=O)N(c4ccc(Cl)cc4)C3)n2)cc1OC (centres undefined) is less than 900 s
Result: N

Request: API: query returns whether the compound falls strictly under 900 s in RP-LC retention time. Query: `COc1cccc(-c2nc3cnccn3c2NCCC(=O)Nc2ccc3c(c2)OCCO3)c1`
Result: Y

Request: Item CCOc1ccc(C2c3[nH]c4ccccc4c3CCN2C(=O)c2ccncc2)cc1 (centres undefined) : RP-LC retention time beneath 900 s, strictly?
Result: N

Request: Lab log: compare recorded RP-LC retention time with 900 s; is it strictly lower for Cc1nn(-c2ccc(F)cc2)c2nc(N3CCCC(C(=O)NCc4ccccc4Cl)C3)sc12 (centres undefined) ?
Result: N

---

- EXPERIMENT_DESCRIPTION: gradient 5% acetonitrile 3 min, to 50% in 2 min, to 85% in 15 min, held 3 min, 100 µL/min
- MEASUREMENT_SETUP: column: Zorbax Extend-C18 2.1 x 50 mm; eluents: water / acetonitrile, 0.1% formic acid
MEASURED_ENDPOINT: RP-LC retention time (s)
Field: numeric (s). Do not append units.

Below, each entry is followed by its recorded RP-LC retention time result.
COc1ccc(N2CCN(c3cc(SCC(=O)Nc4ccc(C(C)C)cc4)ncn3)CC2)cc1 = 1110
Cc1noc(C)c1CNC(=O)Cc1cccc(Cl)c1 = 742
Cc1nnc2ccc(-c3noc(Cc4cccc(F)c4)n3)cn12 = 787
COc1ccc(F)cc1S(=O)(=O)N1CCC(n2cnnc2C)CC1 = 650

Okay, now this compound:
Request: Fill in the blank: the reported RP-LC retention time of Cc1cnc(-c2ccncc2)n1C1CCN(C(=O)C2(C)CCCCC2)C1 (stereo not given) is ____.
Result: 626

---

- EXPERIMENT_DESCRIPTION: gradient 5% acetonitrile 3 min, to 50% in 2 min, to 85% in 15 min, held 3 min, 100 µL/min
- MEASUREMENT_SETUP: column: Zorbax Extend-C18 2.1 x 50 mm; eluents: water / acetonitrile, 0.1% formic acid
Threshold 700 s: RP-LC retention time strictly smaller gives condition met, otherwise condition not met.

Some solved entries appear below for comparison.
CCOc1ccccc1NC(=O)CN1C(=O)C(O)(c2cccc(C)c2)c2ccccc21 (stereo not given) = condition met
CCOC(C)C(/C=N/NC(N)=S)=N/NC(N)=S (stereo not given) = condition met
CCCc1noc(-c2cccn3c(CC(=O)N4CCSCC4)nnc23)n1 = condition met
O=C(c1ccccc1Cl)N1CCN(C(=O)c2nnn3c2COC(c2ccccc2)C3)CC1 (stereo not given) = condition not met
Cc1ccc(Cl)c2c1NC(=O)C2(O)CC(=O)c1ccc(F)cc1 (stereo not given) = condition not met
O=C(C1CCC1)N1CCc2sc(S(=O)(=O)Nc3ccc(F)c(Cl)c3)cc2C1 = condition not met
CCC1CN(C(=O)N2CCC(C(=O)NCCCN3CCCCC3)CC2)c2ccccc2O1 (stereo not given) = condition met
Cc1cc(Br)ccc1NC(=O)C1CCCN(c2nccnc2Oc2ccccc2)C1 (stereo not given) = condition not met
CCN(CC)C(=O)CCC1CCCN(c2cc(NC3CC3)ncn2)C1 (stereo not given) = condition met
O=C(C1CC1)N1CCCC(OCc2nc(-c3cnccn3)no2)C1 (stereo not given) = condition met

Request: RP-LC retention time strictly < 700 s for this molecule? `CCOc1ccccc1NC(=O)N(C)CCc1noc(C2CCCCC2)n1`
Result: condition not met

Request: # strict comparison: is reported RP-LC retention time < 700 s? input = `CC1CCN(C(=O)c2ccc(-c3ccsc3)nc2)CC1`
Result: condition not met

Request: State whether 700 s exceeds RP-LC retention time recorded for `CCc1nc2c(c(=O)n1CC(=O)NCc1ccc(F)cc1)CN(Cc1ccccc1)CC2` .
Result: condition met

Request: Find out if reported RP-LC retention time for `O=C(NCc1cccc(Cl)c1)c1c(O)c2cccnc2[nH]c1=O` is less than 700 s
Result: condition not met

---

Listing of entries alongside the reported RP-LC retention time.
- EXPERIMENT_DESCRIPTION: gradient 5% acetonitrile 3 min, to 50% in 2 min, to 85% in 15 min, held 3 min, 100 µL/min
- MEASUREMENT_SETUP: column: Zorbax Extend-C18 2.1 x 50 mm; eluents: water / acetonitrile, 0.1% formic acid
Number first, unit second: that is the form wanted.

CC(C)NC(=O)c1ccc(OCC2CCCN(C(=O)c3ccc(F)cc3Cl)C2)cc1 (stereo not given) = 887 s
COc1ccc(NC(=O)c2noc3c2CCC3)cc1OC = 811 s
CCC(=O)N(CCOC)CC(=O)N1CCc2sccc2C1COc1ccc(Cl)cc1 (stereo not given) = 907 s
Cn1cc(NC(=O)Nc2ccc(F)c(F)c2)c2ccccc21 = 848 s
Clc1ccc2nc(-c3ccc(N4CCOCC4)cc3)c(Nc3ccccc3)n2c1 = 752 s

Request: Reported RP-LC retention time for `COc1ccccc1-c1nnc(-c2ccc(OC)c(S(=O)(=O)N3CCCCC3)c2)o1` : what is it?
Result: 937 s

Request: Given `COc1ccccc1NS(=O)(=O)c1cc2c3c(c1)CCC(=O)N3CCC2` , state its recorded RP-LC retention time.
Result: 799 s

Request: Which RP-LC retention time value belongs to `Cc1ccc(Nc2nc(-c3ccc(C(C)C)cc3)cs2)nc1` ?
Result: 1130 s

Request: Query: RP-LC retention time; subject: `CN(C)C(=O)c1ccc2c(c1)N(CC(=O)NCCCc1ccccc1)C(=O)CS2`
Result: 726 s

Request: Any idea what RP-LC retention time was measured for `CCN1C(=O)C2(CCN(S(=O)(=O)c3ccc(C)c(F)c3)CC2)c2ccccc21` ?
Result: 1120 s
